System: Botrytis cinerea (B05.10)
protocol.description: Resazurin antifungal assay of 180 alpha-factor peptide variants towards Botrytis (Example 2)
Type: cell-based
measurement.context: % inhibition of fungal growth, Botrytis conidia, peptide 100 μM, resazurin
Peptide text beside a SMILES is read from it.

{"compound": "CC[C@H](C)[C@H](NC(=O)[C@H](Cc1c[nH]c2ccccc12)NC(=O)[C@H](Cc1c[nH]cn1)NC(=O)[C@@H](N)CCCCN)C(=O)N[C@H](C(=O)N[C@@H](CC(C)C)C(=O)N[C@@H](CCCCN)C(=O)N[C@@H](CO)C(=O)NCC(=O)N[C@@H](CCSC)C(=O)N1CCC[C@H]1C(=O)N[C@@H](CCSC)C(=O)N[C@@H](Cc1ccc(O)cc1)C(=O)O)[C@@H](C)O [compound 59] (H-KHWITLKSGMPMY-OH; N-terminus and C-terminus assumed)", "Inhibition at 100 μM": "100%"}
{"compound": "CSCC[C@H](NC(=O)[C@@H]1CCCN1C(=O)[C@H](CCC(N)=O)NC(=O)CNC(=O)[C@@H]1CCCN1C(=O)[C@H](CCCCN)NC(=O)[C@H](CC(C)C)NC(=O)[C@H](CCC(=O)O)NC(=O)[C@H](CC(C)C)NC(=O)[C@H](Cc1ccccc1)NC(=O)[C@H](Cc1c[nH]cn1)NC(=O)[C@@H](N)CCCCN)C(=O)N[C@@H](Cc1ccc(O)cc1)C(=O)O [compound 179] (H-KHFLELKPGQPMY-OH; N-terminus and C-terminus assumed)", "Inhibition at 100 μM": "<90%"}
{"compound": "CC[C@H](C)[C@H](NC(=O)[C@H](Cc1c[nH]c2ccccc12)NC(=O)[C@H](CCCCN)NC(=O)[C@@H]1CCCN1)C(=O)N[C@@H](CCCNC(=N)N)C(=O)N[C@@H](CC(C)C)C(=O)N[C@@H](CCCCN)C(=O)N1CCC[C@H]1C(=O)NCC(=O)N[C@@H](CCC(N)=O)C(=O)N1CCC[C@H]1C(=O)N[C@@H](CCSC)C(=O)N[C@@H](Cc1ccc(O)cc1)C(=O)O [compound 19] (H-PKWIRLKPGQPMY-OH; N-terminus and C-terminus assumed)", "Inhibition at 100 μM": "100%"}
